- Assay target: UniProt P9WNM7
- Sequence (P9WNM7 whole entry): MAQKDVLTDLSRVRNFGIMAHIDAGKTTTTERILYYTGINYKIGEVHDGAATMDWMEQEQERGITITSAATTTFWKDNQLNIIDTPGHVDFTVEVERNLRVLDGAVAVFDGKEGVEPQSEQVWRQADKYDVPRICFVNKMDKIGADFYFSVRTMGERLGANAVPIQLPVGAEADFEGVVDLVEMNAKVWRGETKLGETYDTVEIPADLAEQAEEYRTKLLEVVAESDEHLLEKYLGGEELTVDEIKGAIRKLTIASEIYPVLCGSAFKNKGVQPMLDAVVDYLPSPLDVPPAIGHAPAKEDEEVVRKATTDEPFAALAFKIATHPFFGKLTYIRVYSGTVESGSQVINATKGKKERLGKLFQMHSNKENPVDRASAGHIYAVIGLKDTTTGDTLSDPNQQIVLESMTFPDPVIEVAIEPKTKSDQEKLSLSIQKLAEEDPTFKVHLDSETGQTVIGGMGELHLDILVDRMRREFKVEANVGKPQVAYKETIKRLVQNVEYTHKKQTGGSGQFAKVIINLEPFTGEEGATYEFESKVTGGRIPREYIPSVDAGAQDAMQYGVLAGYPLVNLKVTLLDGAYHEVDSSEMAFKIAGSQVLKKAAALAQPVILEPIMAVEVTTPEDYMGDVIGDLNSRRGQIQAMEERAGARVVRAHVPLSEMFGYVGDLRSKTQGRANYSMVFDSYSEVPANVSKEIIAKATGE
- Protocol notes: SPR (Biacore T200), […] steady-state affinity fit
- Assay type: binding
- Design: gene fusA; recombinant Mtb EF-G1 with a C-terminal His tag, immobilized on CM5 chip

>  <Smiles record>
CC(=O)O[C@H]1C[C@@]2(C)[C@@H](C[C@@H](O)[C@H]3[C@@]4(C)CC[C@@H](O)[C@@H](C)[C@@H]4CC[C@@]32C)/C1=C(\CCC=C(C)C)C(=O)O

>  <Units>
µM

>  <Kd>
3.54

$$$$
